Reported MIC by item:
# Tested on: Staphylococcus epidermidis EPI1
# experimental_setup: agar dilution
Reply with a number, then the unit it belongs to.

So what does the record say about MIC for CCCCCCCC(=O)NC1(C)CC(OC2C(Oc3c4cc5cc3Oc3ccc(cc3Cl)C(O)C3NC(=O)C(NC(=O)C5NC(=O)C(CC(N)=O)NC(=O)C(NC(=O)C(CC(C)C)NC)C(O)c5ccc(c(Cl)c5)O4)c4ccc(O)c(c4)-c4c(O)cc(O)cc4C(C(=O)O)NC3=O)OC(CO)C(O)C2O)OC(C)C1O (centres unmarked) ?
8 µg/mL

Further cases:
Data request, read-out MIC, for CCCCCCCCCCCC(=O)NC1(C)CC(OC2C(Oc3c4cc5cc3Oc3ccc(cc3Cl)C(O)C3NC(=O)C(NC(=O)C5NC(=O)C(CC(N)=O)NC(=O)C(NC(=O)C(CC(C)C)NC)C(O)c5ccc(c(Cl)c5)O4)c4ccc(O)c(c4)-c4c(O)cc(O)cc4C(C(=O)O)NC3=O)OC(CO)C(O)C2O)OC(C)C1O (centres unmarked)
2 µg/mL

Attribution: patent US4639433A
